Values were extracted from PubChem BioAssay.

Assay: basal MM1S mitochondrial membrane potential changes, profiling panel, cell-based, JC-1 fluorescence, 24 h, 100 nL compound (AID 1170); note: test concentration not given here
Details: higher = more signal
quantityKind: z-score
Give your answer as a number; write no unit.

Entry CN1C(=O)C2C=CC(C(O)c3ccc([N+](=O)[O-])cc3)N(Nc3ccccc3)C2C1=O (stereo unspecified) ; z-score = -0.522

Entry O=C1NC(=O)C2C1C=CC(C(O)c1ccc(F)cc1)N2Nc1ccc(Cl)cc1Cl (stereo unspecified) ; z-score = 0.174

Entry O=C1c2ccccc2[C@](Cc2ccccc2I)(C(=O)NCCN2CCOCC2)[C@H](c2ccc(CO)cc2)N1Cc1ccccc1C(F)(F)F ; z-score = -0.601

Entry COc1ccc(C(=O)Nc2ccc(CN3C(=O)[C@@]4(O[C@@H](CC(=O)N(CCO)Cc5ccccc5)[C@H]([Si](C)(C)c5ccc(OC)cc5)[C@H]4C)c4ccccc43)cc2)cc1 ; z-score = -0.493

Entry CS(=O)(=O)CCOC(=O)C1=CC(CCCO)=CC(C2CC2)N(Cc2sc3ccccc3c2Cl)C=C1C(=O)OCCS(C)(=O)=O (stereo unspecified) ; z-score = -1.27

Entry O=C(NCC(F)(F)F)[C@@H]1c2ccccc2C(=O)N(Cc2cc(C(F)(F)F)cc(C(F)(F)F)c2)[C@H]1c1ccc(CO)cc1 ; z-score = -0.626

----------
Provide the recorded composite z-score for the entries that follow.
Target: Pro-neuregulin-1, membrane-bound isoform (Homo sapiens) (UniProt Q02297)
Sequence (Q02297 whole entry, looked up, canonical isoform): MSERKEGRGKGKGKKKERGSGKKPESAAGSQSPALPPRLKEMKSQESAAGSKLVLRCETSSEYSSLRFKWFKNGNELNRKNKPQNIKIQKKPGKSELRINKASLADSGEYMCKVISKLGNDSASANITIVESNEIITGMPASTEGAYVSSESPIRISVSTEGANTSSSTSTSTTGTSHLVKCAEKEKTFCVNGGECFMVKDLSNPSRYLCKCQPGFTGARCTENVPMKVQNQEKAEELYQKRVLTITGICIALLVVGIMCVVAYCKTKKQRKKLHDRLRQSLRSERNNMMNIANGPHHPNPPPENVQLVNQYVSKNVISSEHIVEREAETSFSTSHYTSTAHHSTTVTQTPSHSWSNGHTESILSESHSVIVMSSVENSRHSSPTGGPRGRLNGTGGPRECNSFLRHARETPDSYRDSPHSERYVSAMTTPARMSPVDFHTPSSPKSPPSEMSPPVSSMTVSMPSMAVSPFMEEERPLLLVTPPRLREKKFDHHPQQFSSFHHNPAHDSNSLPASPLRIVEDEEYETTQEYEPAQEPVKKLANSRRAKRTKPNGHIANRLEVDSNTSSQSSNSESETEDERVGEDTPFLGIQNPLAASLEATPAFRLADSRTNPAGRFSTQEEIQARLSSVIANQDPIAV
Experiment: NRG1 binders on small-molecule microarrays, primary screen, psychiatric disease protein project, biochemical, small-molecule microarray, fluorescence 635/667 (AID 1075);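 note: score combines 667 nm spot fluorescence with signal to noise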
Conditions: NRG1 binding, 635 nm fluorescence, higher = more signal
Give your answer as a number; write no unit.

Entry CC[C@@H](O[Si](C#C[Si](C(C)C)(C(C)C)C(C)C)(C(C)C)C(C)C)c1cn(Cc2cccc(Cl)c2)nn1 ; composite z-score = -0.019

Entry CCCCCCCCCCC(O)C1C=CC2C(=O)N(C)C(=O)C2N1Nc1ccccc1 (configuration not stated) ; composite z-score = 0.0962

Entry CC(C)c1ccc(NN2C(C(O)C3=C[C@H]4C[C@@H](C3)C4(C)C)C=CC3C(=O)N(c4ccccc4)C(=O)C32)cc1 (some centres not stated) ; composite z-score = 1.74

Entry COc1ccc([Si](C)(C)[C@H]2[C@H](CCO)O[C@@]3(C(=O)N(Cc4ccccc4)c4ccc(NC(=O)[C@H](C)O)cc43)[C@@H]2C)cc1 ; composite z-score = 0.638

Entry COc1ccc([Si](C)(C)[C@H]2[C@H](CC(=O)N(CCO)Cc3ccccc3)O[C@@]3(C(=O)N(Cc4ccc(N5C(=O)c6cccc7cccc5c67)cc4)c4ccccc43)[C@@H]2C)cc1 ; composite z-score = 1.14

Entry CCCCC(=C=CC[C@@H](O)c1ccccc1OCCO)C[C@@H](O)c1ccccn1 ; composite z-score = 0.69

Entry CN(C)CCCC[C@@H]1NC(=O)[C@H]2C[C@@H](C(=O)NCCCCCCNC(=O)CS)[C@@H](c3cccc(OCCO)c3)N2C1=O ; composite z-score = 0.891

----------
Target: E3 ubiquitin-protein ligase XIAP (Homo sapiens)
Assay: XIAP binders, primary screen, biophysical, small-molecule microarray, fluorescence 635 nm (AID 1181);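 note: score merges 667 nm emission and signal to noise over triplicate slides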
Conditions: small-molecule microarray binding, higher = more signal
Classify as follows. Reported composite z-score greater than or equal to 0.08: condition met. Reported composite z-score below: condition not met.

Qu. Check the entry COc1cc(CO)cc(I)c1O[C@H]1C=C(C(=O)NCCO)C[C@@H](N(CCN2CCOCC2)C(=O)C2CCCO2)[C@@H]1O (some centres undefined) : does composite z-score equal or exceed 0.08?
Ans. condition not met

Qu. Check the entry C=C(/C=C\CNS(=O)(=O)c1ccc(C)cc1)[C@H](O)[C@H]1CCCN1S(=O)(=O)c1ccccc1[N+](=O)[O-] : does composite z-score equal or exceed 0.08?
Ans. condition not met

Qu. Check the entry CC(C)c1ccc(NN2C(C(O)C3=C[C@H]4C[C@@H](C3)C4(C)C)C=CC3C(=O)N(c4ccccc4)C(=O)C32)cc1 (some centres undefined) : does composite z-score equal or exceed 0.08?
Ans. condition met

Qu. Check the entry Cc1ccc(N2C(=O)c3ccccc3[C@@H](C(=O)NCCN3CCOCC3)[C@@H]2c2ccc(CO)cc2)nc1 : does composite z-score equal or exceed 0.08?
Ans. condition not met

Qu. Check the entry COCCOC(=O)N1C(=O)[C@@]2(c3cc(C#CCNC(N)=O)ccc31)[C@H](C(=O)Nc1nc3ccccc3s1)[C@H]1C(=O)O[C@H](c3ccccc3)[C@H](c3ccccc3)N1[C@@H]2c1ccc(O)cc1 : does composite z-score equal or exceed 0.08?
Ans. condition met

Qu. Check the entry C[C@H]1C2[C@H](Cc3ccccc3)NC(=O)[C@]23C(=O)N[C@@H](Cc2ccccc2)C(=O)N2CCC[C@H]2C(=O)NC/C=C/CC/C=C/C3[C@@H]2O[C@]12C (some centres undefined) : does composite z-score equal or exceed 0.08?
Ans. condition not met

Qu. Check the entry CCOC(=O)C1=C[C@@H](C(C)(C)C)N(S(=O)(=O)c2ccc(C)cc2)[C@H]1c1ccc(OC)cc1 : does composite z-score equal or exceed 0.08?
Ans. condition not met

Qu. Check the entry CCCCC(=C=CC[C@@H](O)c1ccc(OCCO)cc1)CCO : does composite z-score equal or exceed 0.08?
Ans. condition met

Qu. Check the entry C=CCOC(=O)[C@H]1[C@@H]2C(=O)O[C@@H](c3ccccc3)[C@@H](c3ccccc3)N2[C@@H](c2ccc(OCCOC(=O)[C@H]3C[C@H]4C(=O)NCC(=O)N4[C@H]3c3ccc(O)cc3)cc2)[C@]12C(=O)Nc1ccccc12 : does composite z-score equal or exceed 0.08?
Ans. condition not met

Qu. Check the entry CC[C@@H]1C=C(C(=O)O)[C@H](c2cccc(Cl)c2)N1S(=O)(=O)c1ccc(C)cc1 : does composite z-score equal or exceed 0.08?
Ans. condition met

Qu. Check the entry Cc1ccc(S[C@]2(C(=O)NC(C)C)CC(=O)N(Cc3ccccc3)[C@@H]2c2ccc(CO)cc2)cc1 : does composite z-score equal or exceed 0.08?
Ans. condition not met

Qu. Check the entry COc1ccc([Si](C)(C)[C@H]2[C@H](CC(=O)N(CCO)Cc3ccccc3)O[C@@]3(C(=O)N(c4ccccc4)c4ccccc43)[C@@H]2C)cc1 : does composite z-score equal or exceed 0.08?
Ans. condition met

----------
Provide the recorded composite z-score for the entries that follow.
Molecular target: Neurogenic locus notch homolog protein 3 (Homo sapiens) (UniProt Q9UM47)
Sequence (Q9UM47 whole entry, looked up): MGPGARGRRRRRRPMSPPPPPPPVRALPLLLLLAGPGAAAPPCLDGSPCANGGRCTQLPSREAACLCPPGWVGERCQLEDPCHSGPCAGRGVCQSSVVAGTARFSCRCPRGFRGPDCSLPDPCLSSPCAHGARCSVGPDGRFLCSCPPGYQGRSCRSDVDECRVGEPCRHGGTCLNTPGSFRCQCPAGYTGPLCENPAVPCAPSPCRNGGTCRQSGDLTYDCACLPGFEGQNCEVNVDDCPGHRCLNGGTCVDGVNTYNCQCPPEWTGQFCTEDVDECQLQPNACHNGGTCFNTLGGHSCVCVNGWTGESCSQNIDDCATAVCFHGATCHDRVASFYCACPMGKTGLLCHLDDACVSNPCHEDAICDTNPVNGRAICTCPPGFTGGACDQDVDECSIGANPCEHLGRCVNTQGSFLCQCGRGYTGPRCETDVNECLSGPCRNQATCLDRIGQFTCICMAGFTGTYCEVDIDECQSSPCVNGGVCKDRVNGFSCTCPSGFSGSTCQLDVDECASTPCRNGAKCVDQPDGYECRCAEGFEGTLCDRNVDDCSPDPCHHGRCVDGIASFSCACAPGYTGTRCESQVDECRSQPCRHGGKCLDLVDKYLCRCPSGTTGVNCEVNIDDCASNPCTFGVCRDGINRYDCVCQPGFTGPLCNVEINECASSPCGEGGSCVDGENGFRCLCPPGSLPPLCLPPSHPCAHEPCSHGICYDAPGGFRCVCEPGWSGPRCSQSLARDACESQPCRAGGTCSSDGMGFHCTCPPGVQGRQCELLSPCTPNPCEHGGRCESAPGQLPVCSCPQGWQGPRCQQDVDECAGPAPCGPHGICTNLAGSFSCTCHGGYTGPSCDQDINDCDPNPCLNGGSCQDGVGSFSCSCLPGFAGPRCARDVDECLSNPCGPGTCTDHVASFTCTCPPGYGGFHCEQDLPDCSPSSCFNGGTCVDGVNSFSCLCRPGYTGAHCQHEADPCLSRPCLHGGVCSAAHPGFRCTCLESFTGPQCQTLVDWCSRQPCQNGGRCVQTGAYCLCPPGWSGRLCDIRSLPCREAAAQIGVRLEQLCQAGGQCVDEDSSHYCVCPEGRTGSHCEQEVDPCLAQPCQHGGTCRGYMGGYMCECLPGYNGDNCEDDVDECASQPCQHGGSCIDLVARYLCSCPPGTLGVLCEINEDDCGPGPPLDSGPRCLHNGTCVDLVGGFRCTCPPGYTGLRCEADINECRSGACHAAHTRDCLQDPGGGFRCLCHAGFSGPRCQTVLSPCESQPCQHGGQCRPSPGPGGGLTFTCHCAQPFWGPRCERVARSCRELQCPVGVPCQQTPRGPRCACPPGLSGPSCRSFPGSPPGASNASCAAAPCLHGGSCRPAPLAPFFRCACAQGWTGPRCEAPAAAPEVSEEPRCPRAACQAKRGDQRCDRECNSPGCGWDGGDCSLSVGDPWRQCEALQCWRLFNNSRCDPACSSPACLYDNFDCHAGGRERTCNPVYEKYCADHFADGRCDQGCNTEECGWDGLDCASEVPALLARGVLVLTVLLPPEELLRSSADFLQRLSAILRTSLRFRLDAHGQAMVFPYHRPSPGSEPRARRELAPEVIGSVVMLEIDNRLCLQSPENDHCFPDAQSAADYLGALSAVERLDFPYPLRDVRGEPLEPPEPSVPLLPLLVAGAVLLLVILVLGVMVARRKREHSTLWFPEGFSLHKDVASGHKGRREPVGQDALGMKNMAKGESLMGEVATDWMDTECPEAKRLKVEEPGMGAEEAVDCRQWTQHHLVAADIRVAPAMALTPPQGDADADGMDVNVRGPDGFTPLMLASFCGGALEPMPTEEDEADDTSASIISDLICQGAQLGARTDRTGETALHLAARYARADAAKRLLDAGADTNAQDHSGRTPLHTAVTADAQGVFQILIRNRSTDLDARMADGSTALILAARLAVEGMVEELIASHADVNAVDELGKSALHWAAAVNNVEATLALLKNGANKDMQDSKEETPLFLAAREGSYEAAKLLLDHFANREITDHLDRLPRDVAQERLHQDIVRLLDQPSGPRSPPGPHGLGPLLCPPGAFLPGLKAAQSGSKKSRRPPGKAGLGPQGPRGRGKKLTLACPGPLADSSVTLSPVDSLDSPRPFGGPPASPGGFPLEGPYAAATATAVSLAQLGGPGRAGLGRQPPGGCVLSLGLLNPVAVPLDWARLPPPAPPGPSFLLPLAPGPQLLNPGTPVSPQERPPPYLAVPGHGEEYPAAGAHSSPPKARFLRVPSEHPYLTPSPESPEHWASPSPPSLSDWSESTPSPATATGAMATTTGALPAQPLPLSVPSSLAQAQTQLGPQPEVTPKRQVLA
Test: NOTCH3 binders on small-molecule microarray, primary screen, biochemical, 635/667 nm fluorescence (AID 1096)
Conditions: NOTCH3 binding, 635 nm fluorescence, higher = more signal

Entry COC(=O)C(CC#Cc1ccc2c(c1)[C@]1(C(=O)N2)[C@H](C(=O)N2CCN(c3ncccn3)CC2)[C@H]2C(=O)O[C@H](c3ccccc3)[C@H](c3ccccc3)N2[C@@H]1c1ccc(O)cc1)C(=O)OC ; composite z-score = 1.01

Entry COC(=O)[C@]1(Cc2ccccc2N=[N+]=[N-])N=C(c2ccc(OCCCO)cc2)O[C@@H]1c1ccccc1CN=[N+]=[N-] ; composite z-score = 0.963

Entry COC(=O)[C@@]1(Cc2ccc(F)cc2)[C@H]2c3cc(C(=O)N4CCCC4)n(CCc4c[nH]c5cc(F)ccc45)c3C[C@H]2CN1C(=O)c1ccccc1 ; composite z-score = 1.02

Entry C=C(CCCC)/C(=C/C[C@@H](OC(C)=O)c1cccc(OCCO)c1)c1cc(C(=O)OC)ccc1OC ; composite z-score = 0.0716

Entry N#Cc1ccc(NN2C(C(O)c3ccc(B(O)O)cc3)C=CC3CN(c4ccccc4)C(=O)C32)cc1 (configuration not stated) ; composite z-score = 0.0787

Entry CCCCC(=C=CC[C@H](O)c1cccc(OCCO)c1)C[C@H](O)c1cc(Cl)cc(Cl)c1O ; composite z-score = 0.883

Entry [N-]=[N+]=Nc1ccccc1C[C@@]1(C(=O)NCC(O)CO)N=C(c2ccc(OCCCO)cc2)O[C@@H]1c1ccccc1N=[N+]=[N-] (some centres not stated) ; composite z-score = 0.298

----------
Provide the recorded z-score for the entries that follow.
Assay: E. coli acrAB mutant growth effects, primary screen, E. coli filamentation inducers, strain DRC39, OD650, 48 h (AID 1179);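 note: screen aims at cell division blockers that make cells filament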
Settings: E. coli DRC39 delta-acrAB growth, higher = more signal, called active from +8 up or from −8 down
Calls of active or inactive are those of the source.

Entry COc1ccc([Si](C)(C)[C@H]2[C@H](CC(=O)N3CCC[C@H]3CO)O[C@@]3(C(=O)N(C)c4ccccc43)[C@@H]2C)cc1 ; z-score = -0.0566 (inactive)

Entry COc1cc(Cc2cc3c(c(-c4ccccc4)n2)[Si](C(C)C)(C(C)C)OC3)cc(OC)c1OC ; z-score = 0.405 (inactive)

Entry CCOC(=O)C[C@H]1[C@H](OC(=O)c2cc3ccccc3oc2=O)[C@@H](NC(=O)Cc2ccc(OC)cc2)c2cc(OCCCO)ccc2N1C(=O)Cc1ccc(OC)cc1 ; z-score = 0.248 (inactive)

Entry Cc1ccc(S[C@]2(C(=O)NC(C)C)CC(=O)N(Cc3ccccc3)[C@@H]2c2ccc(CO)cc2I)cc1 ; z-score = 0.494 (inactive)

Entry CC(C)C[C@@H]1NC(=O)[C@H]2C[C@@H](C(=O)O)[C@@H](c3cccc(OCCO)c3)N2C1=O ; z-score = 0.421 (inactive)

Entry CCCCC(=C=CC[C@H](O)c1ccccc1OCCO)CCO ; z-score = -0.224 (inactive)

Entry COc1ccc([Si](C)(C)[C@@H]2[C@@H](CC(=O)N(CCO)Cc3ccccc3)O[C@]3(C(=O)N(Cc4cccc(I)c4)c4ccccc43)[C@H]2C)cc1 ; z-score = -0.795 (inactive)

Entry CCCCC(=C=CC[C@H](O)c1cccc(OCCO)c1)C[C@H](O)c1cc(Cl)cc(Cl)c1O ; z-score = 0.923 (inactive)

Entry COCCCNC(=O)[C@@]1(Cc2ccccc2I)c2ccccc2C(=O)N(C2CCCCC2)[C@H]1c1ccc(CO)cc1 ; z-score = 0.26 (inactive)

Entry COc1c(C)cc(-c2cc3c(c(CCc4ccccc4)n2)[Si](C(C)C)(C(C)C)O[C@H]3c2ccccc2)cc1C ; z-score = -0.744 (inactive)

Entry OCCCc1cc[n+](Cc2cc3c(cc2Br)OCO3)cc1 ; z-score = -0.0111 (inactive)

Entry CC(C)(C)OC(=O)CC[C@]1(C(=O)N2CCOCC2)COC(c2ccc(OCCCO)cc2)=N1 ; z-score = 1.37 (inactive)

Entry COC(=O)[C@]1(Cc2ccccc2CN=[N+]=[N-])N=C(c2ccc(OCCCO)cc2)O[C@@H]1c1ccccc1N=[N+]=[N-] ; z-score = 0.918 (inactive)

Entry C=CCOC(=O)[C@H]1[C@@H]2C(=O)O[C@@H](c3ccccc3)[C@@H](c3ccccc3)N2[C@@H](c2ccc(OCCOC(=O)[C@H]3C[C@H]4C(=O)NCC(=O)N4[C@H]3c3cccc(OCCO)c3)cc2)[C@]12C(=O)Nc1ccc(I)cc12 ; z-score = 0.765 (inactive)

Entry O=C1c2ccccc2[C@](Cc2ccccc2I)(C(=O)NCCN2CCOCC2)[C@H](c2ccc(CO)cc2)N1Cc1ccccc1C(F)(F)F ; z-score = -0.46 (inactive)
